Each recorded value in this set is attributed to patent US20250154686A1.

# studySystem: Bcl-2 protein (Recombinant Human Bcl-2 Protein) (Homo sapiens, UniProt P10415)
# Construct: purchased Novus Biologicals NBP2-34889
# Sequence (P10415 whole entry): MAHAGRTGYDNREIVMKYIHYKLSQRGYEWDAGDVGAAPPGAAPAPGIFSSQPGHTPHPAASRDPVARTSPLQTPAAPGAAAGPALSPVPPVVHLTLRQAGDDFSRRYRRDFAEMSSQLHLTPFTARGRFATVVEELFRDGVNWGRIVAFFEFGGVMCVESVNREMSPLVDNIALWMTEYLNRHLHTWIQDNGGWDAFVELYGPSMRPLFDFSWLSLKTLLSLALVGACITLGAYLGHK
# methodNotes: AS-MS evaluation of binding of the Example 4 mixture library (1200 compounds/well) to Bcl-2, ASMS ratio (%)
# experimentalContext: AS-MS, Example 4 mixture library, Bcl-2, replicate n = 1
metric: ASMS ratio (%) n = 1
Write your answer as a measured quantity: the number, then the unit.

The value of ASMS ratio (%) n = 1 measured for the molecule `CCOc1cncc(-c2cc(CN3CCN(c4ccc(C(=O)NS(=O)(=O)C(C)(C)C)nn4)CC3)cc(OCC)c2)c1` turned out to be 2.6%

Sample `CCOc1cncc(C#Cc2ccccc2C(=O)N2CCN(c3ccc(C(=O)NS(=O)(=O)c4ccc(NCCSc5ccccc5)c(C(F)(F)F)c4)nn3)CC2)c1` ; ASMS ratio (%) n = 1 observed: 0.0%

For `CCOc1cncc(-c2cc(C(=O)N3CCN(c4ccc(C(=O)NS(=O)(=O)CCC(F)(F)F)cc4)CC3)cc(C(F)(F)F)c2)c1` the molecule record lists ASMS ratio (%) n = 1 as 0.0%

Recorded ASMS ratio (%) n = 1 (molecule `CCOc1cccc(-c2cc(CN3CCN(c4ccc(C(=O)NS(=O)(=O)c5ccc(NCCSc6ccccc6)c(C(F)(F)F)c5)cc4)CC3)cc(OCC)c2)c1` ): −3.3%

// ASMS ratio (%) n = 1 value for `CCOc1cncc(-c2cc(CN3CCN(c4ccc(C(=O)NS(=O)(=O)CCC(F)(F)F)cc4)CC3)cc(OC(F)(F)F)c2)c1` : 0.0%

Form: molecule = `CCOc1cccc(-c2cc(OC)c(CN3CCN(c4ccc(C(=O)NS(=O)(=O)CCC(F)(F)F)cc4)CC3)c(OC)c2)c1` ; ASMS ratio (%) n = 1 = 0.0%

----------
# studySystem: Bcl-2 protein (Recombinant Human Bcl-2 Protein) (Homo sapiens, UniProt P10415)
# Construct: purchased Novus Biologicals NBP2-34889
# methodNotes: AS-MS evaluation of binding of the mixture libraries of Examples 8 and 9 to Bcl-2, ASMS ratio (%), Example 11
# experimentalContext: ASMS ratio, replicate N1; mixtures obtained from Example 9, 10 uM Bcl-2 protein
metric: AS-MS(%) N1
Numeric answer only, unit % assumed.

Lab note: measured AS-MS(%) N1 of CC(C(=O)Nc1ccccc1)c1cc(O)cc(N2CCN(c3ccc(C(=O)NS(=O)(=O)c4ccc(NCCSc5ccccc5)c([N+](=O)[O-])c4)cc3)CC2)c1 (stereo not drawn) [2-2-d1E03-1-0417] was 34.2

For CC(C(=O)Nc1nc2ccccc2s1)c1cc(O)cc(N2CCN(c3ccc(C(=O)NS(=O)(=O)c4ccc(NCCSc5ccccc5)c([N+](=O)[O-])c4)cc3)CC2)c1 (stereo not drawn) [2-2-d1E03-1-0495] the compound record lists AS-MS(%) N1 as 28.9

So for CCOc1cc(C(C)C(=O)Nc2nc3ccccc3s2)cc(N2CCN(c3ccc(C(=O)NS(=O)(=O)c4ccc(N[C@H](CCN5CCOCC5)CSc5ccccc5)c([N+](=O)[O-])c4)cc3)CC2)c1 (stereo partly drawn) [2-2-d1E04-2-0495] , the logged AS-MS(%) N1 turned out to be 52.7

----------
So I've got a bunch of molecules here, and I need their ASMS ratio (%) n = 2 values.
# studySystem: Bcl-2 protein (Recombinant Human Bcl-2 Protein) (Homo sapiens, UniProt P10415)
# Construct: purchased Novus Biologicals NBP2-34889
# methodNotes: AS-MS evaluation of binding of the Example 4 mixture library (1200 compounds/well) to Bcl-2, ASMS ratio (%)
# experimentalContext: replicate n = 2; mixture library; value belongs to the MS peak assigned to the compound
Quick reminder: number only, in %, skip the unit.

Record summary for CCOc1cccc(C#Cc2ccccc2CN2CCN(c3ccc(C(=O)NS(=O)(=O)C(C)(C)C)cc3)CC2)c1 [Compound B2L069-01] : reported ASMS ratio (%) n = 2 = 0.0

The molecule CCOc1cncc(-c2ccc(CN3CCN(c4ccc(C(=O)NS(=O)(=O)C(C)(C)C)nn4)CC3)cc2F)c1 [Compound B2L078-01] showed ASMS ratio (%) n = 2 equal to −0.7

So for CCOc1cncc(-c2cc(C(=O)N3CCN(c4ccc(C(=O)NS(=O)(=O)C(C)(C)C)nn4)CC3)cc(C(F)(F)F)c2)c1 [Compound B2L018-01] , the logged ASMS ratio (%) n = 2 turned out to be −2.5

Lookup result for CCOc1cncc(-c2cnn(-c3cc(C(=O)N4CCN(c5ccc(C(=O)NS(=O)(=O)C(C)(C)C)nn5)CC4)cc(C(F)(F)F)c3)c2)c1 [Compound B2L022-01] ; measured ASMS ratio (%) n = 2: 0.0

Lab note: CCOc1cccc(-c2ccc(CN3CCN(c4ccc(C(=O)NS(C)(=O)=O)nn4)CC3)cc2C)c1 [Compound B2I073-01] gave ASMS ratio (%) n = 2 of 0.0

The molecule identified as CCOc1cncc(-c2ccc(CN3CCN(c4ccc(C(=O)NS(C)(=O)=O)cc4)CC3)c3ccccc23)c1 [Compound B2I066-01] registered its ASMS ratio (%) n = 2 at 0.0

Note to self: ASMS ratio (%) n = 2 recorded for CCOc1cncc(C#Cc2cc(C(=O)N3CCN(c4ccc(C(=O)NS(C)(=O)=O)cc4)CC3)cc(C(F)(F)F)c2)c1 [Compound B2I042-01] was 0.0

The molecule identified as CCOc1cncc(-c2ccc(CN3CCN(c4ccc(C(=O)NS(=O)(=O)C(C)(C)C)nn4)CC3)c(CC)c2)c1 [Compound B2L076-01] registered its ASMS ratio (%) n = 2 at −0.3

The reported value for CCOc1cncc(-c2cc(CN3CCN(c4ccc(C(=O)NS(=O)(=O)C(C)(C)C)cc4)CC3)cc(C(F)(F)F)c2)c1 [Compound B2L062-01] in terms of ASMS ratio (%) n = 2 is 0.0

ASMS ratio (%) n = 2 reading for CCOc1cncc(-c2ccc(C(C)N3CCN(c4ccc(C(=O)NS(C)(=O)=O)cc4)CC3)cc2)c1 (stereo not shown) [Compound B2I098-01] : 0.0

Kindly note the recorded ASMS ratio (%) n = 2 for CCOc1cccc(-c2cc(OC)c(CN3CCN(c4ccc(C(=O)NS(C)(=O)=O)nn4)CC3)c(OC)c2)c1 [Compound B2I085-01] , which is 0.0

The recorded ASMS ratio (%) n = 2 for entry CCOc1cccc(-c2cc(CN3CCN(c4ccc(C(=O)NS(C)(=O)=O)cc4)CC3)cc(C(F)(F)F)c2)c1 [Compound B2I061-01] equals 0.5

Given item CCOc1cccc(-c2cc(C(=O)N3CCN(c4ccc(C(=O)NS(=O)(=O)C(C)(C)C)cc4)CC3)cc(C(C)(C)C)c2)c1 [Compound B2L037-01] , the value recorded as its ASMS ratio (%) n = 2 is 0.0

----------
# studySystem: Bcl-2 protein (Recombinant Human Bcl-2 Protein) (Homo sapiens, UniProt P10415)
# Construct: purchased Novus Biologicals NBP2-34889
# methodNotes: AS-MS evaluation of binding of the Example 4 mixture library (1200 compounds/well) to Bcl-2, ASMS ratio (%)
# experimentalContext: replicate n = 2; mixture library; value belongs to the MS peak assigned to the compound
I'd be grateful if you could share measured ASMS ratio (%) n = 2 for these entries.
Answer with the value and then the unit.

Entry `CCOc1cncc(-c2cc(C(=O)N3CCN(c4ccc(C(=O)NS(C)(=O)=O)cc4)CC3)cc(C(F)(F)F)c2)c1` ; ASMS ratio (%) n = 2 = −2.7%

// ASMS ratio (%) n = 2 lookup, compound = `CCOc1cncc(-c2ccc(CN3CCN(c4ccc(C(=O)NS(C)(=O)=O)cc4)CC3)cc2C)c1` , result: 0.0%

get_value(item= `CCOc1cncc(-c2cc(CN3CCN(c4ccc(C(=O)NS(C)(=O)=O)cc4)CC3)cc(C(F)(F)F)c2)c1` , readout=ASMS ratio (%) n = 2) returns 0.0%

`CCOc1cncc(-c2ccc(C(=O)N3CCN(c4ccc(C(=O)NS(=O)(=O)C(C)(C)C)cc4)CC3)cc2C)c1` yielded ASMS ratio (%) n = 2 of 0.0%

// `CCOc1cncc(-c2cc(CN3CCN(c4ccc(C(=O)NS(=O)(=O)C(C)(C)C)cc4)CC3)cc(OCC)c2)c1` : ASMS ratio (%) n = 2 value = 0.0%

Note to self: ASMS ratio (%) n = 2 recorded for `CCOc1cccc(-c2cc(C(=O)N3CCN(c4ccc(C(=O)NS(=O)(=O)C(C)(C)C)cc4)CC3)cc(C(F)(F)F)c2)c1` was 0.0%

----------
# studySystem: Bcl-2 protein (Recombinant Human Bcl-2 Protein) (Homo sapiens)
# Construct: purchased Novus Biologicals NBP2-34889
# methodNotes: AS-MS evaluation of binding of the Example 4 mixture library (1200 compounds/well) to Bcl-2, ASMS ratio (%)
# experimentalContext: AS-MS, Example 4 mixture library, Bcl-2, replicate n = 2
metric: ASMS ratio (%) n = 2
Numeric only. Scale: %

Briefly, ASMS ratio (%) n = 2 measured for `CCOc1cncc(C#Cc2cncc(C(=O)N3CCN(c4ccc(C(=O)NS(=O)(=O)CCC(F)(F)F)nn4)CC3)c2)c1` : 0.0

In plain terms, `CCOc1cccc(-c2cc(OC)c(CN3CCN(c4ccc(C(=O)NS(=O)(=O)c5ccc(NCCSc6ccccc6)c(C(F)(F)F)c5)cc4)CC3)c(OC)c2)c1` has a documented ASMS ratio (%) n = 2 of 0.0

Entry `CCOc1cccc(-c2ccccc2CCC(=O)N2CCN(c3ccc(C(=O)NS(=O)(=O)CCC(F)(F)F)cc3)CC2)c1` ; ASMS ratio (%) n = 2 = 0.0
